As shown below, each of these compounds has a reported minimum inhibitory concentration (MIC) value.
# Tested on: ESCHERICHIA COLI H560
# assay_comment: In vitro antibacterial activity (MIC), agar dilution
# Assay type: cell-based
# stated_conditions: E. coli H560; BHI agar, 35-37 °C, 20-24 h
Answer as a number with no unit attached.

CC[C@H]1OC(=O)[C@H](C)C[C@H](C)[C@@H](O[C@@H]2O[C@H](C)C[C@H](N(C)C)[C@H]2O)[C@](C)(OC)C[C@@H](C)C(=NOC)[C@H](C)[C@@H](O)[C@]1(C)O; 50

Now consider the entry below.
// minimum inhibitory concentration (MIC) lookup, key: CC[C@H]1OC(=O)[C@H](C)[C@@H](O[C@H]2C[C@@](C)(OC)[C@@H](O)[C@H](C)O2)[C@H](C)[C@@H](O[C@@H]2O[C@H](C)C[C@H](N(C)C)[C@H]2O)[C@](C)(O)C[C@@H](C)C(=O)[C@H](C)[C@@H](O)[C@]1(C)O [Ery A, Erythromycin A, reference compound]
25
